All values here come from ChEMBL document CHEMBL1158788.

test system: HCT-15; test: Cytotoxicity against human HCT15 cells after 48 hrs by MTT assay; format: functional, cell-based; conditions: HCT-15, 48 h
# pIC50 per record follows
# pIC50: negative log10 of molar concentration; output just the value

Worked examples, 4 compounds total:
1. C=C(CC[C@@H](C(=O)O[C@@H]1O[C@H](CO)[C@@H](O)[C@H](O)[C@H]1O)[C@H]1[C@H](OC(C)=O)C[C@@]2(C)C3=CC[C@H]4C(C)(C)C(=O)CC[C@]4(C)C3=CC[C@]12C)C(C)C [DAEDALEASIDE B] = 4.26
2. C=C(CC[C@@H](C(=O)O[C@@H]1O[C@H](CO)[C@@H](O)[C@H](O)[C@H]1O)[C@H]1[C@H](OC(C)=O)C[C@@]2(C)C3=C(CC[C@]12C)[C@@]1(C)CCC(=O)C(C)(C)[C@@H]1CC3)C(C)C [DAEDALEASIDE D] = 4.22
3. C=C(CC[C@@H](C(=O)O)[C@H]1[C@H](O)C[C@@]2(C)c3ccc(C)c(CCC(=O)C(C)C)c3CC[C@]12C)C(C)C = 3.69
4. CC(C(=O)O)[C@@H](C)C(=O)C[C@@H](C)[C@H]1CC[C@@]2(C)C3=C(CC[C@]12C)[C@@]1(C)CC[C@@H](OC(=O)CC(=O)O)C(C)(C)[C@@H]1CC3 (stereo not given in full) = 3.81

Look up pIC50: "C=C(CC[C@@H](C(=O)O[C@@H]1O[C@H](CO)[C@@H](O)[C@H](O)[C@H]1O)[C@H]1[C@H](OC(C)=O)C[C@@]2(C)c3ccc(C)c(CCC(=O)C(C)C)c3CC[C@]12C)C(C)C"
4.49
